system: Staphylococcus aureus SG 511; assay: Minimum inhibition concentration (MIC), Table 5; format: cell-based; settings: Staphylococcus aureus, SG511, Germ: Staphylococcus aureus SG 511; read-out: Minimum inhibition concentration (MIC)
measure: MIC

Worked cases, MIC given:
[[record]]
compound = "Cc1nnc(SCC2=C(C(=O)O)N3C(=O)C(NC(=O)COc4ccc(C(=N)N)cc4)C3SC2)o1 (stereo not drawn)"
targetorsystem = "Staphylococcus aureus SG 511"
resultvalue = "0.0625 to 0.078 µg/mL"

[[record]]
compound = "Cc1nnc(SCC2=C(C(=O)O)N3C(=O)C(NC(=O)COc4ccc(C5=NCCCN5)cc4)C3SC2)s1 (stereo not drawn)"
targetorsystem = "Staphylococcus aureus SG 511"
resultvalue = "0.0625 to 0.078 µg/mL"

[[record]]
compound = "N=C(N)Nc1ccc(CC(=O)NC2C(=O)N3C(C(=O)O)=C(CSc4nncs4)CSC23)cc1 (stereo not drawn)"
targetorsystem = "Staphylococcus aureus SG 511"
resultvalue = "0.0196 to 0.0391 µg/mL"

[[record]]
compound = "N=C(N)c1ccc(OCC(=O)NC2C(=O)N3C(C(=O)O)=C(CSc4nnc(N)s4)CSC23)cc1 (stereo not drawn)"
targetorsystem = "Staphylococcus aureus SG 511"
resultvalue = "0.0625 to 0.078 µg/mL"


# get_value(readout='MIC', item= N=C(N)c1ccc(OCC(=O)NC2C(=O)N3C(C(=O)O)=C(CSc4nc(-c5ccccc5)cs4)CSC23)cc1 (stereo not drawn) )
0.0625 to 0.078 µg/mL

Same question, CCCc1nnc(SCC2=C(C(=O)O)N3C(=O)C(NC(=O)Cc4ccc(C5=NCCN5)cc4)C3SC2)s1 (stereo not drawn) this time
0.0625 to 0.078 µg/mL

Same question, CCCCc1csc(SCC2=C(C(=O)O)N3C(=O)C(NC(=O)Cc4ccc(C5=NCCN5)cc4)C3SC2)n1 (stereo not drawn) this time
0.0625 to 0.078 µg/mL

Same question, CCCCCCNC(=N)c1ccc(OCC(=O)NC2C(=O)N3C(C(=O)O)=C(CSc4nnc(C)o4)CSC23)cc1 (stereo not drawn) this time
0.0625 to 0.078 µg/mL

Same question, N=C(N)c1ccc(CC(=O)NC2C(=O)N3C(C(=O)O)=C(CSc4nccs4)CSC23)cc1 (stereo not drawn) this time
0.0196 to 0.0391 µg/mL

Same question, N=C(N)c1ccc(CC(=O)NC2C(=O)N3C(C(=O)O)=C(CSc4nnc(-c5ccccc5)s4)CSC23)cc1 (stereo not drawn) this time
0.0196 to 0.0391 µg/mL

Same question, CSc1nc(SCC2=C(C(=O)O)N3C(=O)C(NC(=O)Cc4ccc(C5=NCCCN5)cc4)C3SC2)nc(-c2ccccc2)n1 (stereo not drawn) this time
0.0196 to 0.0391 µg/mL

Same question, Cc1csc(SCC2=C(C(=O)O)N3C(=O)C(NC(=O)Cc4ccc(C(=N)N)cc4)C3SC2)n1 (stereo not drawn) this time
0.0625 to 0.078 µg/mL

Same question, N=C(N)c1ccc(CC(=O)NC2C(=O)N3C(C(=O)O)=C(CSc4nncs4)CSC23)cc1 (stereo not drawn) this time
0.0196 to 0.0391 µg/mL

Same question, COc1cc(C(=N)N)ccc1OCC(=O)NC1C(=O)N2C(C(=O)O)=C(CSc3nnc(C)s3)CSC12 (stereo not drawn) this time
0.0625 to 0.078 µg/mL

* * *

test system: Streptococcus D; test: Minimum inhibition concentration (MIC), Table 4; type: cell-based; settings: Streptococcus, Germ: Streptococcus D; read-out: Minimum inhibition concentration (MIC)
measure: MIC

Worked cases, MIC given:
[[record]]
compound = "N=C(N)c1ccc(CC(=O)NC2C(=O)N3C(C(=O)O)=C(CSc4nc5ccccc5s4)CSC23)cc1 (stereo not shown)"
targetorsystem = "Streptococcus D"
measure = "MIC"
resultvalue = "0.196 to 6.25 µg/mL"

[[record]]
compound = "O=C(Cc1ccc(C2=NCCCN2)cc1)NC1C(=O)N2C(C(=O)O)=C(CSC3=NNC(c4ccccc4)=CS3)CSC12 (stereo not shown)"
targetorsystem = "Streptococcus D"
measure = "MIC"
resultvalue = "10 to 50 µg/mL"

[[record]]
compound = "N=C(N)c1ccc(OCC(=O)NC2C(=O)N3C(C(=O)O)=C(CSc4nnnn4-c4ccccc4)CSC23)cc1 (stereo not shown)"
targetorsystem = "Streptococcus D"
measure = "MIC"
resultvalue = "10 to 50 µg/mL"

[[record]]
compound = "CCCCCCNC(=N)c1ccc(OCC(=O)NC2C(=O)N3C(C(=O)O)=C(CSc4nnc(-c5ccccc5)o4)CSC23)cc1 (stereo not shown)"
targetorsystem = "Streptococcus D"
measure = "MIC"
resultvalue = "10 to 50 µg/mL"

[[record]]
compound = "N=C(N)c1ccc(OCC(=O)NC2C(=O)N3C(C(=O)O)=C(CSC4=NCCS4)CSC23)cc1 (stereo not shown)"
targetorsystem = "Streptococcus D"
measure = "MIC"
resultvalue = "10 to 50 µg/mL"


# get_value(readout='MIC', item= O=C(Cc1ccc(C2=NCCCN2)cc1)NC1C(=O)N2C(C(=O)O)=C(CSc3cccc[n+]3[O-])CSC12 (stereo not shown) )
10 to 50 µg/mL

Same question, CCCc1nnc(SCC2=C(C(=O)O)N3C(=O)C(NC(=O)Cc4ccc(C5=NCCCN5)cc4)C3SC2)s1 (stereo not shown) this time
10 to 50 µg/mL

* * *

Tested on: Streptococcus D
Test: Minimum inhibition concentration (MIC), Table 4
Type: cell-based
Conditions: Streptococcus, Germ: Streptococcus D; read-out: Minimum inhibition concentration (MIC)
Description: Minimum inhibition concentration (MIC) in γ/ml
measure: MIC

Worked cases, MIC given:
[[record]]
molecule = "Cc1nnc(SCC2=C(C(=O)O)N3C(=O)C(NC(=O)COc4ccc(C5=NCCCN5)cc4)C3SC2)s1 (stereo not drawn)"
targetorsystem = "Streptococcus D"
resultvalue = "0.196 to 6.25 µg/mL"

[[record]]
molecule = "N=C(N)c1ccc(OCC(=O)NC2C(=O)N3C(C(=O)O)=C(CSc4nncs4)CSC23)cc1 (stereo not drawn)"
targetorsystem = "Streptococcus D"
resultvalue = "10 to 50 µg/mL"


Turning now to a further record.
# get_value(readout='MIC', item= Cc1ccnc(SCC2=C(C(=O)O)N3C(=O)C(NC(=O)Cc4ccc(C5=NCCCN5)cc4)C3SC2)n1 (stereo not drawn) )
10 to 50 µg/mL

* * *

tested on: Staphylococcus aureus SG 511; assay: Minimum inhibition concentration (MIC), Table 5; type: cell-based; conditions: Staphylococcus aureus, SG511, Germ: Staphylococcus aureus SG 511; read-out: Minimum inhibition concentration (MIC)
Reported MIC values follow for various compounds

Worked cases, MIC given:
[[record]]
compound = "O=C(Cc1ccc(C2=NCCN2)cc1)NC1C(=O)N2C(C(=O)O)=C(CSc3nnc(-c4ccccc4)o3)CSC12 (stereo not shown)"
measure = "MIC"
resultvalue = "0.0625 to 0.078 µg/mL"

[[record]]
compound = "O=C(Cc1ccc(C2=NCCN2)cc1)NC1C(=O)N2C(C(=O)O)=C(CSc3nnc(-c4ccccc4)s3)CSC12 (stereo not shown)"
measure = "MIC"
resultvalue = "0.0196 to 0.0391 µg/mL"

[[record]]
compound = "N=C(N)c1ccc(OCC(=O)NC2C(=O)N3C(C(=O)O)=C(CSc4nncs4)CSC23)cc1 (stereo not shown)"
measure = "MIC"
resultvalue = "0.0625 to 0.078 µg/mL"


Turning now to a further record.
# get_value(readout='MIC', item= O=C(COc1ccc(C2=NCCN2)cc1)NC1C(=O)N2C(C(=O)O)=C(CSc3nncs3)CSC12 (stereo not shown) )
0.0625 to 0.078 µg/mL

* * *

test system: Streptococcus D; experiment: Minimum inhibition concentration (MIC), Table 4; type: cell-based; conditions: Streptococcus, Germ: Streptococcus D; read-out: Minimum inhibition concentration (MIC)
Structures can show the parent of a compound that is named as a salt.
measure: MIC

Worked cases, MIC given:
[[record]]
molecule = "CC(C)c1csc(SCC2=C(C(=O)O)N3C(=O)C(NC(=O)Cc4ccc(C5=NCCN5)cc4)C3SC2)n1 (centres unmarked)"
resultvalue = "0.196 to 6.25 µg/mL"

[[record]]
molecule = "CCc1nnc(SCC2=C(C(=O)O)N3C(=O)C(NC(=O)Cc4ccc(C5=NCCCN5)cc4)C3SC2)s1 (centres unmarked)"
resultvalue = "10 to 50 µg/mL"

[[record]]
molecule = "O=C(COc1ccc(C2=NCCCN2)cc1)NC1C(=O)N2C(C(=O)O)=C(CSc3nnc(-c4ccccc4)o3)CSC12 (centres unmarked)"
resultvalue = "0.196 to 6.25 µg/mL"

[[record]]
molecule = "Cc1csc(SCC2=C(C(=O)O)N3C(=O)C(NC(=O)Cc4ccc(C5=NCCN5)cc4)C3SC2)n1 (centres unmarked)"
resultvalue = "10 to 50 µg/mL"

[[record]]
molecule = "Cc1cc(C)nc(SCC2=C(C(=O)O)N3C(=O)C(NC(=O)Cc4ccc(C5=NCCCN5)cc4)C3SC2)n1 (centres unmarked)"
resultvalue = "10 to 50 µg/mL"

[[record]]
molecule = "O=C(Cc1ccc(C2=NCCCN2)cc1)NC1C(=O)N2C(C(=O)O)=C(CSc3nc4ccccc4o3)CSC12 (centres unmarked)"
resultvalue = "10 to 50 µg/mL"

[[record]]
molecule = "O=C(Cc1ccc(C2=NCCCN2)cc1)NC1C(=O)N2C(C(=O)O)=C(CSc3nnc(-c4ccccc4)s3)CSC12 (centres unmarked)"
resultvalue = "10 to 50 µg/mL"

[[record]]
molecule = "N=C(N)c1ccc(CC(=O)NC2C(=O)N3C(C(=O)O)=C(CSc4nncs4)CSC23)s1 (centres unmarked)"
resultvalue = "10 to 50 µg/mL"

[[record]]
molecule = "CCCCCCNC(=N)c1ccc(OCC(=O)NC2C(=O)N3C(C(=O)O)=C(CSc4nnc(C)o4)CSC23)cc1 (centres unmarked)"
resultvalue = "10 to 50 µg/mL"

[[record]]
molecule = "CCCc1nnc(SCC2=C(C(=O)O)N3C(=O)C(NC(=O)COc4ccc(C5=NCCN5)cc4)C3SC2)s1 (centres unmarked)"
resultvalue = "0.196 to 6.25 µg/mL"


# get_value(readout='MIC', item= Cc1nnc(SCC2=C(C(=O)O)N3C(=O)C(NC(=O)COc4ccc(C(=N)N)cc4)C3SC2)o1 (centres unmarked) )
10 to 50 µg/mL

Same question, O=C(Cc1ccc(C2=NCCCN2)cc1)NC1C(=O)N2C(C(=O)O)=C(CSc3nncs3)CSC12 (centres unmarked) this time
10 to 50 µg/mL

Same question, O=C(Cc1ccc(C2=NCCCN2)cc1)NC1C(=O)N2C(C(=O)O)=C(CSc3nnnn3-c3ccccc3)CSC12 (centres unmarked) this time
10 to 50 µg/mL

Same question, N=C(N)c1ccc(CC(=O)NC2C(=O)N3C(C(=O)O)=C(CSc4nnc(-c5ccccc5)o4)CSC23)cc1 (centres unmarked) this time
10 to 50 µg/mL

Same question, Cc1nnc(SCC2=C(C(=O)O)N3C(=O)C(NC(=O)Cc4ccc(NC(=N)N)cc4)C3SC2)s1 (centres unmarked) this time
10 to 50 µg/mL

Same question, N=C(N)c1ccc(OCC(=O)NC2C(=O)N3C(C(=O)O)=C(CSc4nnc(-c5ccccc5)s4)CSC23)cc1 (centres unmarked) this time
10 to 50 µg/mL

Same question, N=C(N)c1ccc(OCC(=O)NC2C(=O)N3C(C(=O)O)=C(CSc4nnc(N)s4)CSC23)cc1 (centres unmarked) this time
10 to 50 µg/mL

Same question, O=C(COc1ccc(C2=NCCN2)cc1)NC1C(=O)N2C(C(=O)O)=C(CSc3nncs3)CSC12 (centres unmarked) this time
10 to 50 µg/mL

Same question, O=C(Cc1ccc(C2=NCCN2)cc1)NC1C(=O)N2C(C(=O)O)=C(CSc3nc4ccccc4s3)CSC12 (centres unmarked) this time
0.196 to 6.25 µg/mL

Same question, N=C(N)c1ccc(CC(=O)NC2C(=O)N3C(C(=O)O)=C(CSc4nnc(-c5ccccc5)s4)CSC23)cc1 (centres unmarked) this time
10 to 50 µg/mL

Same question, CC(C)(C)c1csc(SCC2=C(C(=O)O)N3C(=O)C(NC(=O)Cc4ccc(C5=NCCN5)cc4)C3SC2)n1 (centres unmarked) this time
0.196 to 6.25 µg/mL

Same question, O=C(Cc1ccc(C2=NCCCN2)cc1)NC1C(=O)N2C(C(=O)O)=C(CSc3ccc([N+](=O)[O-])cn3)CSC12 (centres unmarked) this time
10 to 50 µg/mL

Same question, Cc1nnc(SCC2=C(C(=O)O)N3C(=O)C(NC(=O)COc4ccc(C(=N)N)cc4)C3SC2)s1 (centres unmarked) [Example 35, hydrochloride] this time
10 to 50 µg/mL

Same question, O=C(Cc1ccc(C2=NCCN2)cc1)NC1C(=O)N2C(C(=O)O)=C(CSc3nnc(-c4ccccc4)o3)CSC12 (centres unmarked) this time
10 to 50 µg/mL

Same question, CCCc1nnc(SCC2=C(C(=O)O)N3C(=O)C(NC(=O)Cc4ccc(C(=N)N)cc4)C3SC2)o1 (centres unmarked) this time
10 to 50 µg/mL

Same question, CCc1nnc(SCC2=C(C(=O)O)N3C(=O)C(NC(=O)Cc4ccc(C5=NCCN5)cc4)C3SC2)s1 (centres unmarked) this time
10 to 50 µg/mL

Same question, CSc1nc(SCC2=C(C(=O)O)N3C(=O)C(NC(=O)Cc4ccc(C5=NCCCN5)cc4)C3SC2)nc(-c2ccccc2)n1 (centres unmarked) this time
10 to 50 µg/mL

Same question, CCCCc1csc(SCC2=C(C(=O)O)N3C(=O)C(NC(=O)Cc4ccc(C5=NCCN5)cc4)C3SC2)n1 (centres unmarked) this time
0.196 to 6.25 µg/mL

Same question, O=C(Cc1ccc(C2=NCCN2)cc1)NC1C(=O)N2C(C(=O)O)=C(CSc3nc(-c4ccccc4)cs3)CSC12 (centres unmarked) this time
10 to 50 µg/mL
